- TARGET_OR_TEST_SYSTEM: Neutrophil elastase (Homo sapiens, UniProt P08246)
- Sequence (P08246 whole entry): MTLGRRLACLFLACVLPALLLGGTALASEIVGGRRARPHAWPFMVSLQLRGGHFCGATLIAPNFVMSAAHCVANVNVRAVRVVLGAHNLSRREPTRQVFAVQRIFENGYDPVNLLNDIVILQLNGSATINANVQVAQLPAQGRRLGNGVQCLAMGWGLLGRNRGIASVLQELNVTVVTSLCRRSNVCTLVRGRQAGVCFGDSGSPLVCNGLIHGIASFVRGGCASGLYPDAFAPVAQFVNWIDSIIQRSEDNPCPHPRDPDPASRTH
- RUN_DESCRIPTION: Compound was tested for the enzyme inhibitory activity against Human Leukocyte Elastase (HLE) at 28 uM concentration
MEASUREMENT_TYPE: IC50 (µM)
Numbers only, in µM.

Any idea what its IC50 is? The molecule is Cc1cc(O)c2c(c1)C(=O)c1cccc(O)c1C2=O [CHRYSOPHANOL]
18

* * *

Field: IC50. Provide a value for each of the molecules that follow.
- TARGET_OR_TEST_SYSTEM: Neutrophil elastase (Homo sapiens)
- RUN_DESCRIPTION: Compound was tested for the enzyme inhibitory activity against Human Leukocyte Elastase (HLE)
Numbers only, in µM.

CCCCOC(=O)Oc1cc(C)cc2c1C(=O)c1c(OC(=O)OCCCC)cc(OC)cc1C2=O    2.5

Any idea what its IC50 is? The molecule is CCCCOC(=O)Oc1cc(C)cc2c1C(=O)c1c(OC(=O)OCCCC)cc(OCCC)cc1C2=O
1.8

* * *

- TARGET_OR_TEST_SYSTEM: UniProt P08311
- RUN_DESCRIPTION: Compound was tested for the enzyme inhibitory activity against Cathepsin G (CatG); NI = no inhibition
MEASUREMENT_TYPE: IC50

See these solved cases before continuing.
COc1cccc2c1C(=O)c1c(ccc(CC(C)C)c1O)C2=O    No inhibition
COc1cccc2c1C(=O)c1c(ccc(CC3CO3)c1O)C2=O (stereo not drawn)    Not Active
COc1cccc2c1C(=O)c1c(ccc(CC(C)C)c1OC(C)=O)C2=O    No inhibition
COc1cccc2c1C(=O)c1c(ccc(Cc3ccccc3)c1OC(C)=O)C2=O    Not Active
COc1cccc2c1C(=O)c1c(ccc(Cc3ccccc3)c1O)C2=O    No inhibition

Would you mind giving IC50 for every compound in the list below?
1. COc1cccc2c1C(=O)c1c(ccc(C)c1O)C2=O
2. Cc1ccc2c(c1)C(=O)c1ccccc1C2=O
3. CCc1ccc2c(c1)C(=O)c1ccccc1C2=O

["Not Active", "Not Active", "Not Active"]

* * *

- TARGET_OR_TEST_SYSTEM: Cathepsin G (Homo sapiens, UniProt P08311)
- Sequence (P08311 whole entry): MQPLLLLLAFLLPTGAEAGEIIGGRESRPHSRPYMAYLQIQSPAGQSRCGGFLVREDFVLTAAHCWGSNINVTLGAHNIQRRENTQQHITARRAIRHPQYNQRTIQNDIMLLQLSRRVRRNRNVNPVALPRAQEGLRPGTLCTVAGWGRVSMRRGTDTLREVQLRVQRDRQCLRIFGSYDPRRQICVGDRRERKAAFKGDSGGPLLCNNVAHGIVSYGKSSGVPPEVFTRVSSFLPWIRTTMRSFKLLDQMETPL
- RUN_DESCRIPTION: Inhibition of Cathepsin G (CatG)
Field: IC50. Provide a value for each of the compounds that follow.

See these solved cases before continuing.
CCCCCCc1ccc2c(c1O)C(=O)c1c(O)cccc1C2=O    28 µM
C=CCc1ccc2c(c1OC)C(=O)c1c(OC)cccc1C2=O    > 60 µM
CCCc1ccc2c(c1O)C(=O)c1c(OC)cccc1C2=O    > 60 µM

Would you mind giving IC50 for every compound in the list below?
1. C=CCc1ccc2c(c1O)C(=O)c1c(OC)cccc1C2=O
2. CCCCCc1ccc2c(c1O)C(=O)c1c(OC)cccc1C2=O

1: > 60 µM; 2: > 60 µM
